All values here come from the emibetuzumab library of Makowski et al. (2022).

B1: VH:VL chains; a variant is named by its letters at X, in order (parent)
chain 1: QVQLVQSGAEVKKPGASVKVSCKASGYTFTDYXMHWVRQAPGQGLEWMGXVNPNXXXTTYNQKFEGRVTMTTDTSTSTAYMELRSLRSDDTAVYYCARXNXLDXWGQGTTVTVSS
chain 2: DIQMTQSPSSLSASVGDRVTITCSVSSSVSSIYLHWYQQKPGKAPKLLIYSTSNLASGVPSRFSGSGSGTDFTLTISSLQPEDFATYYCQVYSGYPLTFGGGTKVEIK

- Variants of: B1
- test_summary: yeast display scFab, FACS + sequencing
- run_conditions: with MET
The list shows a part of the results. The true hit rate is not given.

{"columns": ["mutant_name", "antigen binding call"],
 "data": [
  ["YAEESAGD", "no binding"],
  ["YKGRGDWY", "binds"],
  ["VETEGDWY", "no binding"]
]}
